Tested on: Plasmodium falciparum
experimental_details: Calibr Malaria Delayed Death Assay SOP
Type: functional, organism-based
Parameters: scale not given: in the data most compounds retested in dose-response had high values
study_conditions: concentration 4.99e-06 (unit not given; other assays of the set use mol/L)
Out of some 38,000 compounds screened, about 1,200 (3.2%) showed an effect of 50% or more. The median lay at about -58%. The list comes from a sample in which strong results are over-represented; it also holds close analogues and randomly drawn compounds.
measurement_label: Percent Effect
Write the quantity with the unit trailing the number.

CN(Cc1cc2n(n1)CCNC2)Cc1n[nH]c2c1CCC2 | -20.1%

Please go through the list and note Percent Effect for each compound.
1. COCC(=O)Nc1ccc2c(c1)C1(CCOCC1)CN2CCF.O=C(O)C(F)(F)F
2. CCN1CCN(CC(O)c2cc(Cl)ccc2Cl)CC1 (configuration not stated)
3. O=C(O)C(F)(F)F.O=C(O)C(F)(F)F.O=C1COC2(CCN(Cc3cccnc3)CC2)CN1c1ccccc1
4. CCOCCN1CCN(CC(O)c2cc(Cl)ccc2Cl)CC1 (configuration not stated)

Given back:
1: -73.75%; 2: 76.72%; 3: -17.97%; 4: 77.57%

Please go through the list and note Percent Effect for each compound.
1. CC(C)C(=O)N1CCN(CC(O)c2cc(Cl)ccc2Cl)CC1 (configuration not stated)
2. O=C(NCC1CC1)[C@@H]1CC[C@@H]2[C@@H](CCN2Cc2ccc(F)c(F)c2)O1.O=C(O)C(F)(F)F

Given back:
1. -47.78%
2. -53.52%

Please go through the list and note Percent Effect for each compound.
1. COC(=O)c1cnn(-c2cc(Oc3cccc(C)c3)ncn2)c1N
2. O=C(CCc1ccco1)N1CCC(Oc2ccccc2)(C(=O)O)CC1
3. Cc1ccc2nc(CN(C)Cc3[nH]nc4c3CCC4)[nH]c2c1C
4. Cc1ccc(C)n1-c1c(C(=O)NCC(c2ccsc2)N(C)C)cnn1C (configuration not stated)

Given back:
["-10.04%", "-48.84%", "36.38%", "-29.69%"]
